Target: D663S (Dictyostelium discoideum, UniProt P42527, D663S)
Construct: gene mhkA; A-CAT: alpha-kinase domain and Thr825 autophosphorylation site of MHCK-A
Sequence (P42527 552-841 D663S): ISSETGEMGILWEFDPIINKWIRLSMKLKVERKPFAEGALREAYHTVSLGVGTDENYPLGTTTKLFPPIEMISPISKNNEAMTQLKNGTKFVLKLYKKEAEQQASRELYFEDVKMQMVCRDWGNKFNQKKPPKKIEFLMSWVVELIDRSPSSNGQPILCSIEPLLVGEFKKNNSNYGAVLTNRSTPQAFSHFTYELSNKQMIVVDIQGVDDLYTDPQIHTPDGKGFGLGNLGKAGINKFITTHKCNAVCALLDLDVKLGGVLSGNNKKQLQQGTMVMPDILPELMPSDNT
Assay: Nucleotide binding assay with fluorescent mant-ATP on purified A-CAT, carried out as previously described (ref 51); at least 3 separate experiments.
Details: read-out: mant-ATP Kd; SD, n = 3
OBSERVATION_TYPE: pKd
On this scale, pKd is minus log10 of a concentration expressed in M (mol/L).

Which value of pKd has been reported for CNc1ccccc1C(=O)O[C@H]1[C@@H](O)[C@H](n2cnc3c(N)ncnc32)O[C@@H]1CO[P@@](=O)(O)O[P@](=O)(O)OP(=O)(O)O [mant-ATP] in the records?
5.68

Cited source: paper PMC4876393
